Target: Casein kinase I isoform epsilon (Homo sapiens, UniProt P49674)
Sequence (P49674 whole entry, canonical isoform): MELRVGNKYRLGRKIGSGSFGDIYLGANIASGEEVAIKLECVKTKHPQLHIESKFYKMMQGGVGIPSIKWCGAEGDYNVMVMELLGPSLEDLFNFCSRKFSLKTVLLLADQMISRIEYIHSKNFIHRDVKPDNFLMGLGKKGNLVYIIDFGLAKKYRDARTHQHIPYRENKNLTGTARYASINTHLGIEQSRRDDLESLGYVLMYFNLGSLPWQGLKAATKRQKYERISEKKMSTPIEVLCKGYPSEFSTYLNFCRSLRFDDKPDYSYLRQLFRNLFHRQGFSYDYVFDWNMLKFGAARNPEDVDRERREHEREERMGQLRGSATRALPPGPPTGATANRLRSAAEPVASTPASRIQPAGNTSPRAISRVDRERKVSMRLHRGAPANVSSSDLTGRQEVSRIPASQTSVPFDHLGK
Test: biochemical
# Lookup of reported IC50 keyed by entry

>  <compound>
Cc1cc(C(=O)NC2Nc3cccc(C)c3N2[C@H]2CCCCN(C(=O)/C=C/CN(C)C)C2)ccn1 (some centres undefined)

>  <IC50>
> 10 µM

$$$$
>  <compound>
COC1=CC2C(=O)NC3=Cc4ccc(OC)cc4C(=C1OC)C32 (centres undefined)

>  <IC50>
> 10 µM

$$$$
>  <compound>
Cc1ccc([N+](=O)[O-])cc1S(=O)(=O)N(C)/N=C/c1cnc2ccc(Br)cn12

>  <IC50>
0.405 µM

$$$$
>  <compound>
Cc1nc2ccc(-c3cc(N)nc(N)c3)nc2n1CC(F)(F)F

>  <IC50>
1.77 µM

$$$$
>  <compound>
Cc1ccc(-n2cc(COc3cccc4cnc(Nc5cccc(Cl)c5)nc34)nn2)c([N+](=O)[O-])c1

>  <IC50>
> 10 µM

$$$$
>  <compound>
COc1cc(CCc2c(O)ccc(O[C@@H]3O[C@H](CO)[C@@H](O)[C@H](O)[C@H]3O)c2C(C)=O)ccc1O [SCORZODIHYDROSTILBENE A]

>  <IC50>
> 10 µM

$$$$
>  <compound>
O=C1NC(Nc2ccccc2)=N/C1=C\c1ccc2c(c1)OCO2

>  <IC50>
> 10 µM

$$$$
>  <compound>
Cc1nc2ccc(-c3cc(N)nc(N)c3)nc2n1C(C)C

>  <IC50>
2.9 µM

$$$$

[ask] // lookup IC50 for c1cc(OCCN2CCCCC2)cc(-c2n[nH]c3ccc(-c4nc[nH]n4)cc23)c1 [CC-401]
[reply] 1.51 µM

[ask] Tell me the measured IC50 of COc1ccc2c3ccnc(Cl)c3n(CC#N)c2c1 , please.
[reply] > 10 µM

Cited source: ChEMBL document CHEMBL5247649
